Source of measurements: PubChem BioAssay (NCATS)

Experiment: Quantitative High-Throughput drug screen in 47 multiple myeloma cell lines against the NCATS MIPE library collection: Karpas25_ECACC cell viability assay (AID 1918968; also: potency is read from the fitted curve at half-maximal effect; nearly all actives have a fitted effect of over 35% in size)
Conditions: Karpas25 myeloma viability, CellTiter-Glo ATP, 48 h; series mostly up to 45.8 µM
Results filed as inconclusive are left out. Activity calls are given as the source filed them. Calls follow the shape of the dose curve; as a rule, active = well fitted cell-killing curve with a large enough effect; inconclusive = small, poorly fitted or top-dose-only effect, or effect the other way; inactive = no such curve, though single readings can be large or run the other way.
recorded-endpoint: Potency

Cc1ccc(C2=Nc3ccc(Cl)cc3OC2)cc1 : 3.72 µM (active)
CCC(=O)OCC(=O)[C@@]1(OC(=O)CC)[C@@H](C)C[C@@H]2[C@H]3CCC4=CC(=O)C=C[C@]4(C)[C@@]3(F)[C@@H](O)C[C@@]21C : 0.118 µM (active)
CC(=O)NCCC(=O)N[C@@H](CCC(N)=O)C(=O)N[C@@H](CO)C(=O)N[C@@H](CCC(N)=O)C(=O)N[C@@H](CCC(N)=O)C(=O)N[C@H](C(=O)N[C@@H](Cc1ccccc1)C(=O)N[C@]1(C)CCCCCCC=CCCC[C@@](C)(C(=O)N[C@@H](CCC(N)=O)C(=O)N[C@@H](CC(N)=O)C(N)=O)NC(=O)[C@H](CC(C)C)NC(=O)[C@H](CC(C)C)NC(=O)[C@@H](CCCNC(=N)N)NC(=O)[C@H](Cc2c[nH]c3ccccc23)NC(=O)[C@H](CC(C)C)NC(=O)[C@H](CC(N)=O)NC1=O)[C@H](C)O : 26.4 µM (active)

## Task Which Potency reading was recorded for the compound `CN(C)CCOc1ccc(-c2nc(-c3ccc4c(c3)CCC4=NO)c(-c3ccncc3)[nH]2)cc1` ?
## Result 14.8 µM (active)

###

Assay: Quantitative High-Throughput drug screen in 47 multiple myeloma cell lines against the NCATS MIPE library collection: KMS12BM_JCRB cell viability assay (AID 1918971); also: nearly all actives have a fitted effect of over 35% in size; also: potency is read from the fitted curve at half-maximal effect
Details: KMS12BM myeloma viability, CellTiter-Glo ATP, 48 h; series mostly up to 45.8 µM
Inconclusive results are not listed. The source made the active and inactive calls. Calls come from the whole dose curve; as a rule, active = well fitted cell-killing curve with a large enough effect; inconclusive = small, poorly fitted or top-dose-only effect, or effect the other way; inactive = no such curve, though single readings can be large or run the other way.
recorded-endpoint: Potency

Use the examples below as a reference point.
CN(C)CCN(C)C(=O)c1ccc(NC(=O)Nc2ccc(-c3nc(N4CCOCC4)c4ccn(CC(F)(F)F)c4n3)cc2)cc1 : 0.209 µM (active)
CCc1cc(-c2n[nH]c(C)c2-c2ccc3c(c2)OCCO3)c(O)cc1O : 5.26 µM (active)
CN1CCN(c2cccc(Nc3nc4c(-c5ccc(S(C)(=O)=O)cc5)cccn4n3)c2)CC1 : 9.35 µM (active)
O[C@@H](COc1cccc2ncccc12)CN1CCN(C2c3ccccc3[C@@H]3[C@H](c4ccccc42)C3(F)F)CC1 (stereo not given in full) : 23.5 µM (active)
CC(C)C[C@@H](N)[C@H](O)C(=O)N[C@H](C(=O)N[C@H](C(=O)N[C@@H](CC(=O)O)C(=O)O)C(C)C)C(C)C : inactive
CC(C)C[C@H](NC(=O)c1cc2ccccc2s1)C(=O)N1CCN(C(=O)[C@H](CO)NS(=O)(=O)c2ccc(Cl)cc2Cl)CC1 : 18.7 µM (active)
CON(C)C(=O)N1N=C(c2cc(F)ccc2F)S[C@]1(CCCN)c1ccccc1 : inactive
Oc1ccc(C=Cc2cc(O)cc(O)c2)cc1 : 33.2 µM (active)
CNC1CCC(N(Cc2cccc(-c3ccncc3)c2)C(=O)c2sc3ccccc3c2Cl)CC1 (stereo not given) : 18.7 µM (active)
CCCCCCCCCCCCCC(=O)N[C@H](CO)[C@H](O)c1ccc([N+](=O)[O-])cc1 : 23.5 µM (active)

## Task // Potency lookup, key: `CN[C@@H]1CN(c2ccc3c(=O)c(C(=O)O)cn(-c4nccs4)c3n2)C[C@@H]1OC`
## Result 0.645 µM (active)

## Task What does the record list as Potency for `Cc1ccccc1C(=O)c1ccc(Nc2ccc(Br)cc2N)cc1Cl` ?
## Result 14.8 µM (active)

## Task Using the record for `O=S(=O)(NCCNCC=Cc1ccc(Br)cc1)c1cccc2cnccc12` , report its Potency.
## Result 16.6 µM (active)

## Task Recorded Potency for `CC[C@H](CC#N)OC(=O)N[C@@H](C)c1cccc(NC(=O)Nc2ccc(-c3cnco3)c(OC)c2)c1` , please?
## Result 1.48 µM (active)

## Task Which Potency value belongs to `CC[C@H](C)C(=O)O[C@H]1C[C@H](O)C=C2C=C[C@H](C)[C@H](CC[C@@H](O)C[C@@H](O)CC(=O)O)[C@H]21` ?
## Result inactive

## Task Quick check: Potency of `COc1nccc(-c2c(-c3ccc(F)cc3)ncn2C2CCNCC2)n1` ?
## Result 20.9 µM (active)

## Task Sample `C[C@H](c1ccc(F)cc1CCCC(=O)O)N(c1cc(F)ccc1F)S(=O)(=O)c1ccc(Cl)cc1` — what was its Potency?
## Result 1.48 µM (active)

## Task # query: Potency of entry `Fc1ccc(CNc2ncnc3ccc(F)cc23)cc1`
## Result 3.72 µM (active)

## Task Requested field: Potency. Item: OC(c1cc(C(F)(F)F)nc2c(C(F)(F)F)cccc12)C1CCCCN1 (stereo not given)
## Result 26.4 µM (active)

## Task Need Potency, item `N#CC1(c2cccc(C(=O)Nc3cc(Oc4ccc5nc(NC(=O)C6CC6)sc5n4)ccc3F)c2Cl)CC1`
## Result 13.2 µM (active)

## Task Entry `Nc1ccn([C@@H]2O[C@H](CO)[C@@H](O)[C@H]2O)c(=O)n1` : reported Potency = ?
## Result inactive

## Task I would be grateful if you could share the reported Potency for CCNC(=O)CCCC=CC[C@@H]1[C@H](C=CC(O)CCc2ccccc2)[C@@H](O)C[C@@H]1O (stereo not given in full) .
## Result 7.43 µM (active)

## Task Report Potency for `O=C(C=Cc1ccc(O)cc1)c1ccc(O)cc1O` please.
## Result 20.9 µM (active)

## Task Request the reported Potency associated with `COc1ccc2cc1Oc1ccc(cc1)C[C@H]1c3cc(c(OC)cc3CCN1C)Oc1c(OC)c(OC)cc3c1[C@H](C2)N(C)CC3`
## Result 13.2 µM (active)

## Task Item `Cc1cc2c(cc1C1(c3ccc(C(=O)O)cn3)CC1)C(C)(C)CCC2(C)C` has what recorded Potency?
## Result 3.32 µM (active)

## Task Fill blank: measured Potency of the compound Cc1ccccc1C(C(=O)NC1CCCCC1)N(C(=O)CNc1ccc(C#N)cc1)c1cccc(F)c1 (stereo not given) is ____.
## Result 2.96 µM (active)

## Task Any idea what its Potency is? The compound is `CCN1CCC(n2cc(CNc3cc(Cl)c4ncc(C#N)c(Nc5ccc(F)c(Cl)c5)c4c3)nn2)CC1`
## Result 9.35 µM (active)

## Task Value lookup for Potency; key = `CN1CCN(c2ncc(-c3cc(Cl)cc(Cl)c3Cl)c(N)n2)CC1`
## Result inactive
